Reference source: paper PMC3509570

# test: Plasma pharmacokinetics of Ge in mice after i.v., i.n. and i.g. administration of Gardenia-Borneol co-compound
# Assay type: in vivo
# condition notes: mouse, in vivo, iv, plasma, i.v., 18 mg/kg gardenia extract + 18 mg/kg borneol, read-out: MRT0–120 (converted)
# Method: Non-compartmental analysis of pharmacokinetic data was performed by Kinetica 4.4 software. The absolute bioavailability was F, F = AUCblood (i.n./i.g.)/AUCblood (i.v.) × 100%. The separation was carried out using a Diamonsil C18 column ([…], i.d., 5.0 μm) under the following chromatographic conditions: column temperature, 25 °C; sample injection volume, 20 μL; flow rate, 1.0 mL/min; detection wavelength, 238 nm; and mobile phase, acetonitrile-water(14:86). […]
parameter measured: MRT last (min)
I only need the number, in min, no unit after it.

Entry COC(=O)C1=CO[C@@H](O[C@@H]2O[C@H](CO)[C@@H](O)[C@H](O)[C@H]2O)[C@@H]2C(CO)=CC[C@H]12 [Ge, geniposide] , MRT last reported as 15

* * *

# test: Brain pharmacokinetics and brain targeting of Ge in mice after i.v., i.n. and i.g. administration of Gardenia-Borneol co-compound
# Type: in vivo
# condition notes: ICR, mouse, in vivo, po, brain, i.g., 18 mg/kg gardenia extract + 18 mg/kg borneol
parameter measured: Cmax (ng/g)
I only need the number, in ng/g, no unit after it.

Entry COC(=O)C1=CO[C@@H](O[C@@H]2O[C@H](CO)[C@@H](O)[C@H](O)[C@H]2O)[C@@H]2C(CO)=CC[C@H]12 [Ge, geniposide] , Cmax reported as 76.2

* * *

# test: Plasma pharmacokinetics of Ge in mice after i.v., i.n. and i.g. administration of Gardenia-Borneol co-compound
# Type: in vivo
# condition notes: mouse, inhaled or intranasal, plasma, i.n., 18 mg/kg gardenia extract + 18 mg/kg borneol
parameter measured: Cmax (ng/mL)
I only need the number, in ng/mL, no unit after it.

Entry COC(=O)C1=CO[C@@H](O[C@@H]2O[C@H](CO)[C@@H](O)[C@H](O)[C@H]2O)[C@@H]2C(CO)=CC[C@H]12 [Ge, geniposide] , Cmax reported as 21900

* * *

# test: Brain pharmacokinetics and brain targeting of Ge in mice after i.v., i.n. and i.g. administration of Gardenia-Borneol co-compound
# Format: in vivo
# condition notes: mouse, in vivo, iv, 18 mg/kg, brain, i.v., read-out: AUC0–120 (converted)
parameter measured: AUC(0-t)

Entry COC(=O)C1=CO[C@@H](O[C@@H]2O[C@H](CO)[C@@H](O)[C@H](O)[C@H]2O)[C@@H]2C(CO)=CC[C@H]12 [Ge, geniposide] , AUC(0-t) reported as 621 µg·h/mL

* * *

# test: Brain pharmacokinetics and brain targeting of Ge in mice after i.v., i.n. and i.g. administration of Gardenia-Borneol co-compound
# Assay type: in vivo
# condition notes: ICR, mouse, in vivo, i.n., read-out: Te (brain/blood drug ratio)
# Procedure: The relative brain targeted coefficient was Re, Re = AUCbrain (i.n./i.g.)/AUCbrain (i.v.) × 100%. The brain/blood drug ratio was Te, Te = AUCbrain/AUCblood × 100%. So the drug target index was DTI, DTI = Te(i.n. /i.g.)/Te(i.v). […] AUC0–120 was 37270.5 ± 4160.6, 32413.6 ± 4573.9 and 6440.1 ± 863.7 […] for i.v., i.n. and i.g., respectively. […]
parameter measured: Kp

Entry COC(=O)C1=CO[C@@H](O[C@@H]2O[C@H](CO)[C@@H](O)[C@H](O)[C@H]2O)[C@@H]2C(CO)=CC[C@H]12 [Ge, geniposide] , Kp reported as 0.117

* * *

# test: Brain pharmacokinetics and brain targeting of Ge in mice after i.v., i.n. and i.g. administration of Gardenia-Borneol co-compound
# Assay type: in vivo
# condition notes: ICR, mouse, inhaled or intranasal, 18 mg/kg, brain, i.n.
parameter measured: MRT last (min)
I only need the number, in min, no unit after it.

Entry COC(=O)C1=CO[C@@H](O[C@@H]2O[C@H](CO)[C@@H](O)[C@H](O)[C@H]2O)[C@@H]2C(CO)=CC[C@H]12 [Ge, geniposide] , MRT last reported as 51.2

* * *

# test: Brain pharmacokinetics and brain targeting of Ge in mice after i.v., i.n. and i.g. administration of Gardenia-Borneol co-compound
# Format: in vivo
# condition notes: ICR, mouse, in vivo, iv, brain, i.v., 18 mg/kg gardenia extract + 18 mg/kg borneol
parameter measured: Cmax (ng/g)
I only need the number, in ng/g, no unit after it.

Entry COC(=O)C1=CO[C@@H](O[C@@H]2O[C@H](CO)[C@@H](O)[C@H](O)[C@H]2O)[C@@H]2C(CO)=CC[C@H]12 [Ge, geniposide] , Cmax reported as 1480

* * *

# test: Brain pharmacokinetics and brain targeting of Ge in mice after i.v., i.n. and i.g. administration of Gardenia-Borneol co-compound
# Format: in vivo
# condition notes: mouse, in vivo, po, brain, i.g.
parameter measured: Tmax

Entry COC(=O)C1=CO[C@@H](O[C@@H]2O[C@H](CO)[C@@H](O)[C@H](O)[C@H]2O)[C@@H]2C(CO)=CC[C@H]12 [Ge, geniposide] , Tmax reported as ~1 h

* * *

# test: Plasma pharmacokinetics of Ge in mice after i.v., i.n. and i.g. administration of Gardenia-Borneol co-compound
# Assay type: in vivo
# condition notes: mouse, in vivo, po, 18 mg/kg, plasma, i.g., 18 mg/kg gardenia extract + 18 mg/kg borneol
parameter measured: Tmax

Entry COC(=O)C1=CO[C@@H](O[C@@H]2O[C@H](CO)[C@@H](O)[C@H](O)[C@H]2O)[C@@H]2C(CO)=CC[C@H]12 [Ge, geniposide] , Tmax reported as ~30 min

* * *

# test: Plasma pharmacokinetics of Ge in mice after i.v., i.n. and i.g. administration of Gardenia-Borneol co-compound
# Type: in vivo
# condition notes: mouse, in vivo, 18 mg/kg, i.g. vs i.v., read-out: F (absolute bioavailability)
parameter measured: bioavailability (%)
I only need the number, in %, no unit after it.

Entry COC(=O)C1=CO[C@@H](O[C@@H]2O[C@H](CO)[C@@H](O)[C@H](O)[C@H]2O)[C@@H]2C(CO)=CC[C@H]12 [Ge, geniposide] , bioavailability reported as 28.8

* * *

# test: Plasma pharmacokinetics of Ge in mice after i.v., i.n. and i.g. administration of Gardenia-Borneol co-compound
# Format: in vivo
# condition notes: mouse, in vivo, 18 mg/kg, i.v. (reference), F = AUCblood(i.n./i.g.)/AUCblood(i.v.) × 100%, read-out: F (absolute bioavailability)
parameter measured: bioavailability (%)
I only need the number, in %, no unit after it.

Entry COC(=O)C1=CO[C@@H](O[C@@H]2O[C@H](CO)[C@@H](O)[C@H](O)[C@H]2O)[C@@H]2C(CO)=CC[C@H]12 [Ge, geniposide] , bioavailability reported as 100

* * *

# test: Brain pharmacokinetics and brain targeting of Ge in mice after i.v., i.n. and i.g. administration of Gardenia-Borneol co-compound
# Assay type: in vivo
# condition notes: mouse, in vivo, inhaled or intranasal, 18 mg/kg, brain, i.n., read-out: AUC0–120 (converted)
parameter measured: AUC(0-t) (µg·h/mL)
I only need the number, in µg·h/mL, no unit after it.

Entry COC(=O)C1=CO[C@@H](O[C@@H]2O[C@H](CO)[C@@H](O)[C@H](O)[C@H]2O)[C@@H]2C(CO)=CC[C@H]12 [Ge, geniposide] , AUC(0-t) reported as 540

* * *

# test: Brain pharmacokinetics and brain targeting of Ge in mice after i.v., i.n. and i.g. administration of Gardenia-Borneol co-compound
# Format: in vivo
# condition notes: mouse, in vivo, po, 18 mg/kg, brain, i.g., read-out: AUC0–120 (converted)
parameter measured: AUC(0-t) (µg·h/mL)
I only need the number, in µg·h/mL, no unit after it.

Entry COC(=O)C1=CO[C@@H](O[C@@H]2O[C@H](CO)[C@@H](O)[C@H](O)[C@H]2O)[C@@H]2C(CO)=CC[C@H]12 [Ge, geniposide] , AUC(0-t) reported as 107

* * *

# test: Plasma pharmacokinetics of Ge in mice after i.v., i.n. and i.g. administration of Gardenia-Borneol co-compound
# Assay type: in vivo
# condition notes: mouse, inhaled or intranasal, plasma, i.n., 18 mg/kg gardenia extract + 18 mg/kg borneol, read-out: MRT0–120 (converted)
parameter measured: MRT last (min)
I only need the number, in min, no unit after it.

Entry COC(=O)C1=CO[C@@H](O[C@@H]2O[C@H](CO)[C@@H](O)[C@H](O)[C@H]2O)[C@@H]2C(CO)=CC[C@H]12 [Ge, geniposide] , MRT last reported as 31.7
